# Target: Histamine H3 receptor (Homo sapiens)
# Sequence (Q9Y5N1 whole entry): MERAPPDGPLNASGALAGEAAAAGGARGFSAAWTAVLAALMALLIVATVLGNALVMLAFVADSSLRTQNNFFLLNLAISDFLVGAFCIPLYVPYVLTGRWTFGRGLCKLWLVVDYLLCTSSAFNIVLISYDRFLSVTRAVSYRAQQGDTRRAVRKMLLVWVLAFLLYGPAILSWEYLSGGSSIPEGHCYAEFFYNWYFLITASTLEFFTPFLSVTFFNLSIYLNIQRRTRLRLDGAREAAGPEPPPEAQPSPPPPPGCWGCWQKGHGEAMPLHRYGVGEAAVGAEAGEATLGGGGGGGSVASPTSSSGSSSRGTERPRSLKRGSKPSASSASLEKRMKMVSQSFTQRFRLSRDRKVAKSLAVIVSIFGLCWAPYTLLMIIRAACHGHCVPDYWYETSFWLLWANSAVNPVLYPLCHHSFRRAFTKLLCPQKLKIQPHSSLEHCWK
# Design: species or system Sf9
pKi: −log10 of the molar value.
Assign true to entries whose pKi meets or exceeds 6; assign false to the rest.

# Smiles Record, Assigned Label
records = [
    ("Cc1cc(OCCC[n+]2c(C)cc(/C=C/c3cc4c5c(c3)CCCN5CCC4)cc2C)ccc1-c1nc2c(C)c(F)ccc2[nH]1", "false"),
    ("Cc1cc(OCCC[n+]2c(C)cc(/C=C/C=C/c3ccc(N(C)C)cc3)cc2C)ccc1-c1nc2c(C)c(F)ccc2[nH]1", "false"),
    ("Cc1cc(/C=C/C=C/c2ccc(N(C)C)cc2)cc(C)[n+]1CCCNCCc1c[nH]cn1", "true"),
    ("Cc1cc(OCCCNC(=O)CCCCCN2\\C(=C/C=C/C=C/C3=[N+](CCCCS(=O)(=O)[O-])c4ccccc4C3(C)C)C(C)(C)c3ccccc32)ccc1-c1nc2c(C)c(F)ccc2[nH]1", "false"),
    ("Cc1cc(/C=C/C=C/c2ccc(N(C)C)cc2)cc(C)[n+]1CCCc1c[nH]cn1", "true"),
    ("Cc1cc(OCCCNC(=O)CCCCCNC(=O)COc2ccc(/C=C/C3=[N+]4C(=Cc5ccc(-c6ccc[nH]6)n5[B-]4(F)F)C=C3)cc2)ccc1-c1nc2c(C)c(F)ccc2[nH]1", "true"),
    ("Cc1cc(/C=C/C=C/c2ccc(N(C)C)cc2)cc(C)[n+]1CCCN1CCc2nc[nH]c2C1", "true"),
    ("Cc1cc(/C=C/C=C/c2ccc(N(C)C)cc2)cc(C)[n+]1CCCCc1c[nH]cn1.O=C(O)C(F)(F)F.O=C([O-])C(F)(F)F", "true"),
    ("Cc1cc(/C=C/C=C/c2ccc(N(C)C)cc2)cc(C)[n+]1CCCCCc1c[nH]cn1", "true"),
]
